Cited source for all entries: PubChem BioAssay

# experiment: resazurin metabolic signal in A549 cells – cell-based, resazurin fluorescence, 24 h, PK04 Diversity Set, profiling panel (AID 1171); further: test concentration not given here
# statedConditions: A549 viability, higher = more signal, called active from +8 up or from −8 down
Each entry falls in a class defined on z-score; the bands are range A: < -0.3; range B: ≥ -0.3 and < 0.2; range C: ≥ 0.2

C=C(C)[C@@H]1CC=C(C(O)C2C=CC3C(=O)N(C4CCCCC4)C(=O)C3N2Nc2ccc(OC)cc2)CC1 (stereo not given in full) = range C
O=[N+]([O-])c1ccc(C[n+]2ccc(-c3ccc(CO)cc3)cc2)o1 = range A
Cc1ccc(C(C)CC(O)C2C=CC3C(=O)N(Cc4ccccc4)C(=O)C3N2n2cnnc2)o1 (stereo not given) = range A
COCCCNC(=O)[C@]1(CCS(=O)(=O)c2ccccc2)N=C(c2ccc(OCCCO)cc2)O[C@@H]1c1ccccc1 = range B
CCOC(=O)C1=CC[C@@H](c2ccc(N(CC)CC)cc2)N(S(=O)(=O)c2ccc(C)cc2)[C@H]1c1ccc([N+](=O)[O-])cc1 = range C

Which band does CC(C)CN1C(=O)[C@@]2(Cc3ccccc31)c1ccccc1C(=O)N(Cc1ccccc1)[C@H]2c1ccc(CO)cc1 fall in? range B

Quick one: [N-]=[N+]=NCc1ccccc1C[C@@]1(C(=O)NCCN2CCOCC2)N=C(c2ccc(OCCCO)cc2)O[C@@H]1c1ccccc1CN=[N+]=[N-] range A

Quick one: CCOC(=O)C[C@H]1[C@H](OC(=O)c2ccc(C(=O)c3ccccc3)cc2)[C@@H](NC(=O)C2CCCCC2)c2cc(OCCCO)ccc2N1C(=O)Cc1ccc(OC)cc1 range B

Quick one: C=CCC(OC(C)=O)[C@@H]1[C@@H](N(Cc2ccc(-c3cccc(C(F)(F)F)c3)o2)C(=O)c2cccc3ccccc23)c2cc(OCCCO)ccc2N1C(=O)c1ccc(-c2ccccc2)cc1 (stereo not given in full) range A

Quick one: C#CCNS(=O)(=O)N(C)C range C

----------
# experiment: ATP-based viability of Huh7 replicon cells – cell-based, CellTiter-Glo luminescence, basal, 48 h, cytotoxicity control for HCV replication inhibitor project, primary screen (AID 1143);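 further: Huh7 hepatoma cells carrying a hepatitis C replication reporter with no stimulus; test concentration not given here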
# statedConditions: higher = more signal, called active from +8 up or from −8 down
Below, each entry is listed with its recorded z-score.
Please give the numeric answer without any surrounding text.

These recorded examples may help you get a feel for the data.
CN1C(=O)C2C=CC(C(O)c3ccc(F)cc3)N(N3CCCCC3)C2C1=O (centres undefined) = 1
COC(=O)c1c(CC[C@@H](CO)NC(=O)N[C@@H](C)Cn2cc(C3(O)CCCC3)nn2)oc(C(C)=O)c1C(=O)OC = -2.75
COCCCNC(=O)[C@]1(CCS(=O)(=O)c2ccccc2)N=C(c2ccc(OCCCO)cc2)O[C@@H]1c1ccccc1 = -1.63

// next item, z-score requested
z-score lookup needed for COCCOC(=O)N1C(=O)[C@@]2(c3cc(C#CCC(C(=O)OC)C(=O)OC)ccc31)[C@H](C(=O)N1CCCCCCC1)[C@H]1C(=O)O[C@H](c3ccccc3)[C@H](c3ccccc3)N1[C@@H]2c1ccc(O)cc1 , thanks. -4.08

----------
# experiment: probe aNog binding to arrayed compounds – biochemical, biotinylated probe, 635/667 nm fluorescence, primary screen (AID 1115);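 further: probe is biotinylated aNog protein used at 0.15 µg/mL for 1 h at 4 C; z-score combines 667 nm fluorescence of each spot with its signal to noise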
# statedConditions: small-molecule microarray, higher = more signal
Below, each entry is listed with its recorded composite z-score.
Please give the numeric answer without any surrounding text.

CC(=O)NCCCC[C@@H]1NC(=O)[C@H]2C[C@@H](C(=O)NCCCCCN)[C@@H](c3cccc(OCCO)c3)N2C1=O = -0.392
[N-]=[N+]=NCc1ccccc1C[C@@]1(C(=O)NCCN2CCOCC2)N=C(c2ccc(OCCCO)cc2)O[C@@H]1c1ccccc1CN=[N+]=[N-] = 0.291
CC(C)CCC[C@@H](C)[C@H]1CC[C@@]2(C)C3=C(CC[C@]12C)[C@@]1(C)CC[C@H](OC(=O)C(C)(C)C)C(C)(C)C1CC3 (some centres undefined) = -0.705
COc1ccc([Si](C)(C)[C@@H]2[C@@H](CC(=O)N(CCO)Cc3ccccc3)O[C@]3(C(=O)N(C)c4c(Br)cc(C)cc43)[C@H]2C)cc1 = -0.406
CCCNC(=O)[C@@H]1c2ccccc2C(=O)N(CC23CC4CC(CC(C4)C2)C3)[C@H]1c1ccc(CO)cc1 = 0.697
C=CCNC(=O)[C@@H]1[C@H]2C(=O)O[C@H](c3ccccc3)[C@H](c3ccccc3)N2[C@H](c2ccc(O)cc2)[C@@]12C(=O)Nc1ccc(C#CCCO)cc12 = -0.372
COc1ccc(CCNC(=O)[C@@H]2c3ccccc3C(=O)N(Cc3ccccc3C(F)(F)F)[C@H]2c2ccc(CO)cc2)cc1 = -0.559
C=CC[C@]1(C(=O)NCC(O)CO)N=C(c2ccc(OCCCO)cc2)O[C@H]1c1ccccc1N=[N+]=[N-] (some centres undefined) = 1.68

composite z-score lookup needed for CCOC(=O)C[C@H]1[C@H](OC(=O)Cc2ccc3c(c2)OCO3)[C@@H](NC(=O)c2ccccc2)c2cc(OCCCO)ccc2N1C(=O)c1ccc2ccccc2n1 , thanks. -0.0675

----------
# assayedTarget: Alpha-bungarotoxin (Bungarus multicinctus) (UniProt P60615)
# Sequence (P60615 whole entry, looked up): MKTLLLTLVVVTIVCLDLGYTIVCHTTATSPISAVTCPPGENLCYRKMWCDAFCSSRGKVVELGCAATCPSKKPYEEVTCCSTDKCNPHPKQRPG
# experiment: compounds binding labelled alpha-BTX control protein – biochemical, small-molecule microarray, Alexa647 label, 635/667 nm fluorescence, artefact control for SMM control protein annotation, profiling panel (AID 1117)
# statedConditions: alpha-BTX-A647 binding fluorescence, higher = more signal
Below, each entry is listed with its recorded composite z-score.
Please give the numeric answer without any surrounding text.

CC[C@@H]1[C@@H]2C3C(=O)N(CC)C(=O)C3CC(=O)[C@@H]2[C@H](c2ccc(C)cc2)N1S(=O)(=O)c1ccc(C)cc1 (stereo partly specified) = 0.564
COCCCNC(=O)[C@@]1(Cc2ccccc2CN=[N+]=[N-])N=C(c2ccc(OCCCO)cc2)O[C@H]1c1ccccc1N=[N+]=[N-] = 1.48
CC(C)N1C(=O)c2ccccc2[C@](C)(C(=O)O)[C@@H]1c1ccc(CO)cc1 = 0.468
O=C1NC(=O)C2C1C=CC(C(O)CCc1ccccc1)N2Nc1ccccn1 (stereo unspecified) = 0.67

composite z-score lookup needed for COCCOC(=O)N1C(=O)[C@@]2(c3cc(C#Cc4ccc(OC)cc4)ccc31)[C@H](c1ccc(OCCO)cc1)N1[C@H](c3ccccc3)[C@H](c3ccccc3)OC(=O)[C@H]1[C@@H]2C(N)=O , thanks. 2.23

Quick one: Cc1cc(C)c(C(O)C2C=CC3C(=O)N(c4ccccc4)C(=O)C3N2Nc2ccc([N+](=O)[O-])cc2)c(C)c1 (stereo unspecified) 2.19

----------
# experiment: budding yeast growth modifiers under rapamycin – strain BY4716, OD600, 96 h, primary screen (AID 1091); further: test concentration not given here
# statedConditions: S. cerevisiae BY4716 + rapamycin, higher = more signal, called active from +8 up or from −8 down
measuredEndpoint: z-score
Please give the numeric answer without any surrounding text.

z-score lookup needed for COc1ccccc1CN1C(=O)c2ccccc2[C@@]2(Cc3ccccc3N(C3CC3)C2=O)[C@@H]1c1ccc(CO)cc1 , thanks. -2.24

----------
# assayedTarget: Dihydroorotate dehydrogenase (quinone), mitochondrial (Plasmodium falciparum (isolate 3D7)) (UniProt Q08210)
# Sequence (Q08210 whole entry, looked up): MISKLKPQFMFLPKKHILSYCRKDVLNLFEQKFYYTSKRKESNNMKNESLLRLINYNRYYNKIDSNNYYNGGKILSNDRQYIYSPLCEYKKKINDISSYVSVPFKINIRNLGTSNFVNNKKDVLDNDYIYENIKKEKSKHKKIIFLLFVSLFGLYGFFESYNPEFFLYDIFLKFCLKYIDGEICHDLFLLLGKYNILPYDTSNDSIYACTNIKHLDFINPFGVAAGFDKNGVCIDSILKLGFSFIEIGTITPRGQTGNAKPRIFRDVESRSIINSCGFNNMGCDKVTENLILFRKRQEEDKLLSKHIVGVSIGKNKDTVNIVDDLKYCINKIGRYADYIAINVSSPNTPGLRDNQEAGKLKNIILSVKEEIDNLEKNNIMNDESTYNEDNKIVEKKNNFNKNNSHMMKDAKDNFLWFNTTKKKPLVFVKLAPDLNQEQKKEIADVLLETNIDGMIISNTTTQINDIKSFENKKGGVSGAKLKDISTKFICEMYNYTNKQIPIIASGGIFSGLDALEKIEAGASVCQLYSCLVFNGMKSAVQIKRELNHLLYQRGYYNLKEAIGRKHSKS
# experiment: inhibition of P. falciparum DHODH – biochemical, C-terminal His tag, absorbance 600 nm, primary screen (AID 1175);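 further: recombinant parasite enzyme with a five histidine tag at its C terminus; test concentration not given here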
# statedConditions: PfDHODH enzyme, DCIP absorbance 600 nm; higher = more signal, called active from +8 up or from −8 down
Each entry falls in a class defined on composite z-score; the bands are bin 1 = under -1, bin 2 = from -1 up to -0.3, bin 3 = -0.3 and over

COc1cc(NN2C(C(O)c3ccc(I)cc3)C=CC3C(=O)N(C)C(=O)C32)cc(OC)c1OC (configuration not stated) = bin 2

Which band does COc1ccc([Si](C)(C)[C@@H]2[C@@H](CC(=O)N(CCO)Cc3ccccc3)O[C@]3(C(=O)N(Cc4ccc(N5CCOC5=O)cc4)c4ccccc43)[C@H]2C)cc1 fall in? bin 3

Quick one: CC1(C)[C@@H]2CC(C(O)C3C=CC4C(=O)N(c5ccccc5)C(=O)C4N3Nc3ccccc3F)=C[C@@H]1C2 (some centres not stated) bin 3

Quick one: OCc1ccc(-c2cc[n+](Cc3cccc(OC(F)(F)F)c3)cc2)cc1 bin 1

Quick one: CC1=C2[C@@H](CCc3ccccc3)OB(O)C[C@@H]2[C@@H]2C(=O)C=CC(=O)[C@@H]2C1 bin 1

Quick one: C=C(COC)/C(=C/C[C@@H](OC(=O)c1ccncc1)c1cccc(OCCO)c1)c1cc(C(=O)OC)ccc1OC bin 1

----------
# experiment: compound effects on multiple myeloma cell viability – MM1S, calcein-AM fluorescence, 48 h, basal, profiling panel (AID 1165);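 further: viability of MM1S multiple myeloma cells under basal unstimulated conditions; test concentration not given here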
# statedConditions: higher = more signal
measuredEndpoint: z-score
Please give the numeric answer without any surrounding text.

These recorded examples may help you get a feel for the data.
C=C[C@H](C)[C@H](OC(=O)Nc1ccc(SC)cc1)c1ccc(O)c2ccccc12 = -2.74
C[N+](C)(C)CCCCCCNC(=O)[C@H]1C[C@H]2C(=O)N3CCC[C@H]3C(=O)N2[C@H]1c1cccc(OCCO)c1 = 0.429

z-score lookup needed for O=c1c2ccc(Br)cc2nc(-c2ccccc2)n1Cc1cccc(O)c1 , thanks. -0.115

Quick one: CCCN1C(=O)[C@@H]2Cc3c([nH]c4ccccc34)[C@@H](c3cccc(O)c3)N2C1=O 0.342

Quick one: [N-]=[N+]=NCc1ccccc1[C@H]1OC(c2ccc(OCCCO)cc2)=N[C@@]1(Cc1ccccc1N=[N+]=[N-])C(=O)NCCN1CCOCC1 -1.71

Quick one: OCCCC1=CC(c2cccs2)N(Cc2cccc(OC(F)(F)F)c2)CC1 (stereo unspecified) -3.3

Quick one: O=C(O)[C@]1(CCS(=O)(=O)c2ccccc2)N=C(c2ccc(OCCCO)cc2)O[C@@H]1c1ccccc1 -1.2

Quick one: COC(=O)C(CC#Cc1ccc2c(c1)[C@]1(C(=O)N2)[C@H](C(=O)N2CCc3cc(OC)c(OC)cc3C2)[C@H]2C(=O)O[C@H](c3ccccc3)[C@H](c3ccccc3)N2[C@@H]1c1ccc(OCCO)cc1)C(=O)OC 0.783

Quick one: COC(=O)[C@@]1(Cc2ccc(F)cc2)[C@H]2c3cc(C(=O)N(C)C)n(CCSCCO)c3C[C@H]2CN1C(=O)c1ccccc1 -0.684

Quick one: C[C@]12C(=O)N(CCCO)[C@@H]3C(=O)N(c4ccc(Cl)cc4)CC=CC31O[C@@H]1/C=C\CCCOC(=O)C12 (stereo partly specified) 0.14

Quick one: CCCC=C(CCC)[C@@H](NC(=O)Cc1ccccc1)c1ccc(C(=O)OC)cc1 -2.42
